# Target System: Sentrin-specific protease 8 (Homo sapiens, UniProt Q96LD8);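 also: luminescence read-out of SENP8 inhibition, dose-response confirmation following an ultra-high-throughput screen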
# Sequence (Q96LD8 whole entry): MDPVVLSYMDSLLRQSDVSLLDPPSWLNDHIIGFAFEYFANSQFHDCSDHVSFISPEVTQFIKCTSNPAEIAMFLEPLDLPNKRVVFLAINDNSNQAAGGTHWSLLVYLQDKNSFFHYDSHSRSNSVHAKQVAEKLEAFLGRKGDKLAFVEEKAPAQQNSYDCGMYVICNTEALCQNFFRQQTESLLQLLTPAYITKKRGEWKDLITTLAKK
# Format: functional
Active and inactive are the calls of the source.
# reported IC50; entries follow

Solved cases below.
* Cc1cc(O)c(-c2cc(C(=O)Nc3cccnc3)[nH]n2)cc1C | > 100 µM (inactive)
* O=C(Nc1cccc(F)c1)c1ccc(-c2ccccc2Cl)o1 | 53.7 µM (active)
* CC(=O)NC1=C(N(C)C2CCS(=O)(=O)C2)C(=O)c2ccccc2C1=O (stereo unspecified) | 13.4 µM (active)
* Cc1ccnc2ccc(-c3nc4ccccc4o3)cc12 | 71 µM (active)
* COc1ccc(-c2nnc(SCc3ccccc3F)o2)cc1 | 12.2 µM (active)

Note: attention shifts to another entry.
Problem: Which IC50 is reported with Sentrin-specific protease 8 (Homo sapiens, UniProt Q96LD8) for this entry: `c1ccc(Nc2nnc(-c3cccc4ccccc34)o2)cc1` ?
Solution: > 100 µM (inactive)

Source of measurements: ChEMBL document CHEMBL1201862
